B1: TPR t1 (parent)
chain: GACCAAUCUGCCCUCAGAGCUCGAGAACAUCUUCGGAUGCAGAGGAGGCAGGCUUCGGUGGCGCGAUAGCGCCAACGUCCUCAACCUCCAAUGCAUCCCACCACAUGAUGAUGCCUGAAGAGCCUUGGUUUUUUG

variants of: B1; assay: polymerase ribozyme fitness, log enrichment relative to wild type (log ratio); higher = more active; in vitro selection for triplet polymerase activity
# if value of polymerase ribozyme fitness (log ratio) reaches -2, tag Condition met; if it stays below, tag Condition not met

Recorded results for 10 variants are shown here.
{"CHANGE": "G52C G58A", "ASSIGNED_LABEL": "Condition met"}
{"CHANGE": "C4G G63A U106G A118G C123G", "ASSIGNED_LABEL": "Condition not met"}
{"CHANGE": "G36A G77C", "ASSIGNED_LABEL": "Condition met"}
{"CHANGE": "C11U A100C", "ASSIGNED_LABEL": "Condition met"}
{"CHANGE": "G63C A90U", "ASSIGNED_LABEL": "Condition not met"}
{"CHANGE": "C56U A111C", "ASSIGNED_LABEL": "Condition met"}
{"CHANGE": "C11A A41C G58A U96A", "ASSIGNED_LABEL": "Condition not met"}
{"CHANGE": "G42A C88A A121U", "ASSIGNED_LABEL": "Condition met"}
{"CHANGE": "U7G U32A A46U G77A C104A A105U C123G", "ASSIGNED_LABEL": "Condition not met"}
{"CHANGE": "C15A C49U C72A U132A", "ASSIGNED_LABEL": "Condition met"}

Does G48U C70G have a reported polymerase ribozyme fitness (log ratio) of at least -2?
Condition not met

Does C62U C97A have a reported polymerase ribozyme fitness (log ratio) of at least -2?
Condition not met
